Here, each record is paired with measured Log10GI50 data.
tested on: BT-549; test: NCI 60 cell line screen (SRB), Breast Cancer; format: cell-based; settings: PG=+50
Please give a number only; it is taken to be in log10M.

[[record]]
molecule = "CC1=C(C=Cc2cccc(C=CC3=C(C)C4CCC(C)C5CCC6(C)OOC45C(O3)O6)c2)OC2OC3(C)CCC4C(C)CCC1C24OO3 (stereo not shown) [VII-f]"
readout_kind = "Log10GI50"
value_observed = "−6.50"

[[record]]
molecule = "CC1=C(C=Cc2cccc(C=CC3=C(C)C4CCC(C)C5CCC6(C)OOC45C(O3)O6)c2)OC2OC3(C)CCC4C(C)CCC1C24OO3 (stereo not shown) [VII-g]"
readout_kind = "Log10GI50"
value_observed = "−7.51"


Consider the record given below.
// Log10GI50 lookup, molecule = CC(=O)O[C@H]1C(=O)[C@@]2(C)[C@H]([C@H](OC(=O)c3ccccc3)[C@]3(O)C[C@H](OC(=O)[C@H](O)[C@@H](NC(=O)c4ccccc4)c4ccccc4)C(C)=C1C3(C)C)[C@]1(OC(C)=O)CO[C@@H]1C[C@@H]2O [Paclitaxel, paclitaxel, reference compound] , result: −9.81
